// data source = patent US20220306765A1

Provide the reported binding percentage vs wild-type CLDN18.2 of each item.
TARGET OF ASSAY: human CLDN18.2-mRFP G65P (human)
Sequence (chain, as listed by the source G65P G65P limits assumed): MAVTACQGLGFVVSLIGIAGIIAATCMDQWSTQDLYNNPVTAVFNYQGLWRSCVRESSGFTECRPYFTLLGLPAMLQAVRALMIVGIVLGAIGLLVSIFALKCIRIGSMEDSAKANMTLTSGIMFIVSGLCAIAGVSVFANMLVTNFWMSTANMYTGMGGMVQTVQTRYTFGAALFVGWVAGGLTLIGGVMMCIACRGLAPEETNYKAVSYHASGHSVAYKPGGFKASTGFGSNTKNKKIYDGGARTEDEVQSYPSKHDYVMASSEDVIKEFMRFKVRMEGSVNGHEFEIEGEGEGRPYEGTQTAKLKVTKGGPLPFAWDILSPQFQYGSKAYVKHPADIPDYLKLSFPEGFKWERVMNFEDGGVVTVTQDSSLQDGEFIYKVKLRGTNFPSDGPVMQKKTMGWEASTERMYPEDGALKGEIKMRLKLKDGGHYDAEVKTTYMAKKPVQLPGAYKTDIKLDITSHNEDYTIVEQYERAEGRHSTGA
ASSAY OVERVIEW: FACS, transfected HEK293, 10 µg/ml antibody;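 further: antibody binding read by flow cytometry with a FITC-labelled anti-human IgG secondary, gated on RFP-positive cells, each mutant signal expressed against wild-type CLDN18.2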
A number alone suffices; assume %.

Tell us which binding percentage vs wild-type CLDN18.2 value is on record for 7C12-C (antibody, human IgG1, V domains shown, also called chimeric 7C12) VH: EFQLQQSGPELEKPGASVRISCKTSGYSFTGYNMNWVKQSNGESLEWIGNIDPYYGATRYNQKFKGKATLTVDKSSSTAYMQLKSLTSEDSAVYYCARSYYGNAFDYWGQGTTLTVSS VL: DIVMTQSPSSLTVTAGEKVTMSCKSSQSLLNSGNQKNYLTWYQQKPGQPPKLLIYWASTRESGVPDRFTGSGSGTDFTLTISSVQAEDLAVYYCQNDYSFPFTFGSGTKLEIK 79.4

Tell us which binding percentage vs wild-type CLDN18.2 value is on record for 11F12-C (antibody, human IgG1, V domains shown, also called chimeric 11F12) VH: EFQLQQSGPELEKPGASVRISCKTSGYSFTGYNMNWVKQSNGESLEWIGYIDPYYGGTRYNQKFKGKATLTVDKSSSTAYMQLKSLTSEDSAVYYCARSYYGNAFDYWGQGTTLTVSS VL: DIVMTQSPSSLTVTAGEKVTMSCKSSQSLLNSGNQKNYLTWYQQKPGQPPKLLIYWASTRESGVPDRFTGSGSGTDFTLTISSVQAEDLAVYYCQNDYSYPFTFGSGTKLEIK 92.7

Tell us which binding percentage vs wild-type CLDN18.2 value is on record for 12E9-C (antibody, human IgG1, V domains shown, also called chimeric 12E9) VH: EFQLQQSGPELEKPGASVRISCKTSGYSFTGYNMNWVKQSNGESLEWIGNIDPYYGGTRYNQKFKGKATLTVDKSSSTAYMQLKSLTSEDSAVYYCARSYYGNAFDYWGQGTTLTVSS VL: DIVMTQSPSSLTVTAGEKVTMSCKSSQNLLNNGNQKNYLTWYQQKPGQPPKLLIYWASTRESGVPDRFTGSGSGTDFILTISSVQAEDLAVYYCQNDYSFPFTFGAGTKLELK 96.7

Tell us which binding percentage vs wild-type CLDN18.2 value is on record for 59A9-C (antibody, human IgG1, V domains shown, also called chimeric 59A9) VH: QITQKESGPGILQPSQTLSLTCSLSGFSLSTYFIGVGWIRQPSGKGLEWLAHIWWNDNKYYNTALKSRLTISKDTSNNQVFLKIASVDTADTATYYCARMGSGAWFTYWGQGTLVTVSA VL: DIVMTQSPSSLTVTAGEKVTMSCKSSQSLLNSGNQKNYLTWYQQKPGQPPKLLIYWASTRESGVPDRFTGSGSGTDFTLTISSVQAEDLAVYYCQNDYYYPLTFGSGTKLEIK 85.5
